Measured values drawn from patent US20200399712A1 for this set.

molecules and their reported Threshold of tumor cell numbers for HPV-16 detection
# Tested on: HPV-16
# assay: qPCR sensitivity against HPV-HNSCC tumor samples diluted among 10 ng normal human DNA
# runParameters: Sample # 7
Reply numerically in tumor cells, unit not repeated.

For orientation, consider the following solved cases.
Challenge: Identify Threshold of tumor cell numbers for HPV-16 detection associated with the molecule HR E5L2-4: primer/probe set for junction between E5 and L2, SEQ ID NO: 55-57 (same as SEQ ID NO: 4-6) (nucleic acid, chemistry not given here) DNA 1: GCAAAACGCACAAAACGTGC DNA 2: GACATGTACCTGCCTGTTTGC DNA 3: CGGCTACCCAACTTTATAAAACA
Response given: 30.0

Challenge: Identify Threshold of tumor cell numbers for HPV-16 detection associated with the molecule BR E1-5: HPV-16 E1 region primer/probe set, SEQ ID NO: 40-42 (same as SEQ ID NO: 1-3) (nucleic acid, chemistry not given here) DNA 1: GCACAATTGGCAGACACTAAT DNA 2: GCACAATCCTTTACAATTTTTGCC DNA 3: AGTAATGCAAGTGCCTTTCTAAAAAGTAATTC
Response given: 30.0

More entries:
Challenge: Identify Threshold of tumor cell numbers for HPV-16 detection associated with the molecule BR E6-1: HPV-16 E6 region (172-373 bp) primer/probe set, SEQ ID NO: 58-60 (nucleic acid, chemistry not given here) DNA 1: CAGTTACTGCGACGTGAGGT DNA 2: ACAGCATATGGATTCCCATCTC DNA 3: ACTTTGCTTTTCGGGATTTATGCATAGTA
Response given: 30.0
